Parameter pEC50: see the listing below.
Test system: HSV-1 (KOS)
TEST_SUMMARY: HSV-1 infection ELISA assay
Assay type: cell-based
CONDITION: 50% inhibition of HSV replication relative to control infected cells; Table 1
pEC50: −log10 of the molar value.

SUBSTANCE	RESULT_COMPARATOR	pEC50
ISIS 4889: AGG GGA ATC CGT CAT, P = S, SEQ ID NO 14 (AGGGGAATCCGTCAT; all phosphorothioate, sugars by position and methylation of C not given here)	=	5.70
ISIS 5653: TT GGGG TT GGGG TT GGGG, P = S, SEQ ID NO 38 (TTGGGGTTGGGGTTGGGG; all phosphorothioate, sugars by position not given here)	=	6.70
ISIS 4664: GGG T GGG T ATA G AAG G GC, P = S, SEQ ID NO 48 (GGGTGGGTATAGAAGGGC; all phosphorothioate, sugars by position and methylation of C not given here)	=	6.70
ISIS 4693: G T ATA G AAG GGC TCC, P = S, SEQ ID NO 52 (GTATAGAAGGGCTCC; all phosphorothioate, sugars by position and methylation of C not given here)	<	5.52
ISIS 4896: GC CGA TGC GGG G, P = S, SEQ ID NO 20 (GCCGATGCGGGG; all phosphorothioate, sugars by position and methylation of C not given here)	=	5.92
